Reported AC50 values follow for various compounds
- test_target: UniProt:P08684
- Sequence (P08684 whole entry): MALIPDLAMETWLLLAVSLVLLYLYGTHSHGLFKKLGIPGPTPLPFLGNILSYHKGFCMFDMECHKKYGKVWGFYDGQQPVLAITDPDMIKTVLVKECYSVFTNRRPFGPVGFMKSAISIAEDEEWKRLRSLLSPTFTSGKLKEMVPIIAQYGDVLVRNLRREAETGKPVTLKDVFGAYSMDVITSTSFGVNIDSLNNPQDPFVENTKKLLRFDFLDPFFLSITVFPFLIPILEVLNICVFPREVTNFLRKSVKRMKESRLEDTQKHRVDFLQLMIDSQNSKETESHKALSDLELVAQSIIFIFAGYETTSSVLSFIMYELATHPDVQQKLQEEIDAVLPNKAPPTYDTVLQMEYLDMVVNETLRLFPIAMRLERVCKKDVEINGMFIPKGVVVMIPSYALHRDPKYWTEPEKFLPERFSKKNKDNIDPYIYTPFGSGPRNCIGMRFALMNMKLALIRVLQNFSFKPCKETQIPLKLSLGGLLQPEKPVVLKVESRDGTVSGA
- condition_context: Potency;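 further: confirmatory qHTS run detecting inhibitors and substrates of CYP3A4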
property: AC50

{"compound": "Oc1cc(Cl)c(Cl)c(Cl)c1Cl", "property": "AC50", "assay_result": "12.6 µM (inconclusive)"}
{"compound": "CCN(CC)c1ccc(N)cc1", "property": "AC50", "assay_result": "25.1 µM (inconclusive)"}
{"compound": "COc1cc(O)cc(OC)c1OC [ANTIAROL]", "property": "AC50", "assay_result": "31.6 µM (inconclusive)"}
{"compound": "O=C(CC(=O)c1ccccc1)c1ccccc1", "property": "AC50", "assay_result": "12.6 µM (inconclusive)"}
{"compound": "CCCn1c(-c2ccc(F)cc2)nc2c(NCCN(CC)CC)nc(C)nc21", "property": "AC50", "assay_result": "15.8 µM (inconclusive)"}
{"compound": "COC1=CC(=O)C(C(=O)c2ccccc2)=CC1=O", "property": "AC50", "assay_result": "10 µM (inconclusive)"}
{"compound": "CC1(C)C[C@@H]2C(=O)CCC3O[C@@]3(C)CCC21 (stereo partly drawn)", "property": "AC50", "assay_result": "12.6 µM (inconclusive)"}
{"compound": "Nc1c(S(=O)(=O)O)cc(Nc2ccc(Nc3nc(Cl)nc(Nc4ccc(S(=O)(=O)O)cc4)n3)c(S(=O)(=O)O)c2)c2c1C(=O)c1ccccc1C2=O", "property": "AC50", "assay_result": "25.1 µM (inconclusive)"}
